Below, each entry is listed alongside its reported koff.
molecular target: T1, mouse serum albumin (mouse, UniProt P07724 25-608); assay: Octet HTX (ForteBio), HCAb on AHC sensor, 1:1 fit
T1 construct: also called MSA
T1 sequence (P07724 25-608 limits assumed): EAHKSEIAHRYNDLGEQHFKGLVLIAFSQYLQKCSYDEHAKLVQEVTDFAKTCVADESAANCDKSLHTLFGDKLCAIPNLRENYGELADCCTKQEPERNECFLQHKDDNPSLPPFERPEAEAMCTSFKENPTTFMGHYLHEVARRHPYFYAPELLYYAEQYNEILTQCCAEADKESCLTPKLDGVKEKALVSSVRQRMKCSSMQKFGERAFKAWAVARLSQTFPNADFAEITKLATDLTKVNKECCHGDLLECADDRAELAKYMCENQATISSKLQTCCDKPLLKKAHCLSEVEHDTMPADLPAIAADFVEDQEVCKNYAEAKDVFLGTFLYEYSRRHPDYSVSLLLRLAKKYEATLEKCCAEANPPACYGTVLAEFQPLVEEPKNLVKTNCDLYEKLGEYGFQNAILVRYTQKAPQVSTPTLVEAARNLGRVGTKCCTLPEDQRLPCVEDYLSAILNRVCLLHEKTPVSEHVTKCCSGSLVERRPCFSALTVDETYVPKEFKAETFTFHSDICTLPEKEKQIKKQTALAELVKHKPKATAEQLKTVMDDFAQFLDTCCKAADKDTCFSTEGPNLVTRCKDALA

{"binder": "CNG-HSA-112 (VHH) VHH: KVQLLESGGGLVQPGGSLRLSCAASGFTFPSFGMSWVRQAPGKGLEWVSSISGSGSDTLYADSVKGRFTISRDNAKTTLYLQMNSLRPEDTAVYYCTIGGSVSKSSRGTLVTVSS", "koff": "0.013 s⁻¹"}
{"binder": "CNG-HSA-103 (VHH) VHH: KVQLVESGGGLVQPGGSLRLSCAASGFTFSSFGMTWVRQAPGKGLEWVSSISGSGSDTLYADSVRGRFTISRDNSKNTLYLQMNSLRPEDTAVYYCTIGGSLSPSSQGTLVTVSS", "koff": "0.00324 s⁻¹"}
{"binder": "CNG-HSA-119 (VHH) VHH: KVQLVESGGGLVQPGNSLRLSCAASGFTFSSFGMSWVRQAPGKGLEWVSSISGSGSDALYADSAKGRFTISRDNAKTTLYLQMNSLRAEDTAVYYCTIGGSLSPSSQGTLVTVSS", "koff": "0.00854 s⁻¹"}
{"binder": "CNG-HSA-102 (VHH) VHH: KVQLLESGGGLVQPGGSLRLSCAASGFTFSSFGMSWVRQAPGKGLEWVSSISGSGSDTLYADSVRGRFTISRDNSKNTLYLQMNSLRPEDTAVYYCTIGGSLSPSSQGTLVTVSS", "koff": "0.00738 s⁻¹"}
{"binder": "CNG-HSA-120 (VHH) VHH: KVQLVESGGGLVQPGGSLRLSCAASGFTFSSFGMSWVRQAPGKGPEWVSSISGSGSDTLYADSVKGRFTISRDNSKNTLYLQMNSLRPEDTAVYYCTIGGSLKQSSQGTLVTVSS", "koff": "0.00107 s⁻¹"}
{"binder": "CNG-HSA-118 (VHH) VHH: KVQLVESGGGLVQPGNSLRLSCAASGFTFSSFGMSWVRQAPGKGLEWVSSISGGGSDTLYADSVRGRFTISRDNSKNTLYLQMNSLRAEDTAVYYCTIGGSLRASSQGTLVTVSS", "koff": "0.00274 s⁻¹"}
{"binder": "CNG-HSA-101 (VHH) VHH: KVQLVESGGGLVQPGGSLRLSCAASGFTFSSFGMTWVRQAPGKGLEWVSSISGSGSDTLYADSVRGRFTISRDNSKNTLYLQMNSLRAEDTAVYYCTIGGSLSPSSQGTLVTVSS", "koff": "0.00341 s⁻¹"}
{"binder": "CNG-HSA-105 (VHH) VHH: EVQLLESGGGLVQPGGSLRLSCAASGFVFSSFGMSWVRQAPGKGLEWVSSISGSGSDTLYADSVKGRFTISRDNSKNTLYLQMNSLRPEDTAVYYCTIGGSLSRSSQGTLVTVSS", "koff": "0.0206 s⁻¹"}
